target: HLA-B*15:01; test: IEDB peptide-MHC binding, purified MHC/direct/fluorescence; filed as Kd, often an IC50 or EC50 that approximates it; bounds were set here for any values at or beyond the usual limits of such assays; conditions: source organism: Yersinia pestis
measured.quantity: pKd
Remember, pKd is on a log scale: it is -log10 of the molar concentration.

Q) Param item = TVYPKTHYV ; retrieve measured pKd.
A) 5.70

====

target: HLA-B*08:01; test: IEDB peptide-MHC binding, purified MHC/direct/fluorescence; filed as Kd, often an IC50 or EC50 that approximates it; bounds were set here for any values at or beyond the usual limits of such assays; conditions: source organism: Mammarenavirus lassaense
measured.quantity: pKd
Note on pKd: it is the negative log10 of concentration, concentration in mol/L.

Q) Query: pKd; subject: QLDQRRALL
A) 6.11

All values here come from the Immune Epitope Database (IEDB).
